Target: ATP-dependent translocase ABCB1 (Homo sapiens, UniProt P08183)
Sequence (P08183 whole entry): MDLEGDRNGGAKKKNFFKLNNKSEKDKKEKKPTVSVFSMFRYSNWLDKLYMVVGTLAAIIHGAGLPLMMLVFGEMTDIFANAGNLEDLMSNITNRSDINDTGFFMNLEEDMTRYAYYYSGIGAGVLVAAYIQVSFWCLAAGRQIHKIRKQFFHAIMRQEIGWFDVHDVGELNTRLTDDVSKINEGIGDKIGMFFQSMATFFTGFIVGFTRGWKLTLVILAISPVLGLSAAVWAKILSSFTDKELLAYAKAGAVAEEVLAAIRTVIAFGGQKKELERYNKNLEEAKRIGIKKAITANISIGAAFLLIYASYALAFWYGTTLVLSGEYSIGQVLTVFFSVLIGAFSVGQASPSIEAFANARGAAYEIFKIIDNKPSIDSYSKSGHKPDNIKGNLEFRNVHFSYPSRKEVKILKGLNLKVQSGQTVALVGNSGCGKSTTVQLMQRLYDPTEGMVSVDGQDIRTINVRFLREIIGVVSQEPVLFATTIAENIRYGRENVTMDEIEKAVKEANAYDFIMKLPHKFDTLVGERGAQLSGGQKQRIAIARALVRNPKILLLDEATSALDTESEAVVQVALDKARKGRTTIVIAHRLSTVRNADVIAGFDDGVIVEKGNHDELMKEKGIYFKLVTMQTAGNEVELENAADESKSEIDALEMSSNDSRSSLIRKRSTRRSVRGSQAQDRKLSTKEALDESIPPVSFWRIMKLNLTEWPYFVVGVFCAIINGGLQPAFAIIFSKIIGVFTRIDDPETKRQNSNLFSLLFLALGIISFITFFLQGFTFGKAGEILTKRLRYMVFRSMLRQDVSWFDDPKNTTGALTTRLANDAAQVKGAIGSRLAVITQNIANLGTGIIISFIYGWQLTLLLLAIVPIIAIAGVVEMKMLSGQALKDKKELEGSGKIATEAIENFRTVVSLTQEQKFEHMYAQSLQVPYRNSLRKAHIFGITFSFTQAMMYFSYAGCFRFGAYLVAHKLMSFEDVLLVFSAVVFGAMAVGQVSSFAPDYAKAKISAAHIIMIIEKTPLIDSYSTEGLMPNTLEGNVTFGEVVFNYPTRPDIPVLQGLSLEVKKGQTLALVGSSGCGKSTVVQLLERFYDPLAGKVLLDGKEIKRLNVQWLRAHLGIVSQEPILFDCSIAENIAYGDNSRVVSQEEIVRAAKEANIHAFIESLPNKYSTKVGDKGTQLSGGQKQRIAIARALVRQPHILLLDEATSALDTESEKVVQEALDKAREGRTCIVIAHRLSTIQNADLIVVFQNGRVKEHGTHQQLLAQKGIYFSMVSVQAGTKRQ
Experiment: TP_TRANSPORTER: increase in Vinblastine intracellular accumulation in MDR1-expressing LLC-PK1 cells
Format: functional, cell-based
measured-quantity: Ki (µM)
The reply should contain only the number, in µM.

// worked examples, Ki included
[[record]]
compound = "CC(C)C[C@H]1C(=O)N2CCC[C@H]2[C@]2(O)O[C@](NC(=O)[C@@H]3C=C4c5cccc6[nH]c(Br)c(c56)C[C@H]4N(C)C3)(C(C)C)C(=O)N12 [BROMOCRIPTINE]"
reading_unit = "µM"
result = 3.96

[[record]]
compound = "CC(C)[C@@]1(NC(=O)[C@@H]2C=C3c4cccc5[nH]cc(c45)C[C@H]3N(C)C2)O[C@@]2(O)[C@@H]3CCCN3C(=O)[C@H](Cc3ccccc3)N2C1=O [ERGOCRISTINE]"
reading_unit = "µM"
result = 13.3

[[record]]
compound = "CN1C[C@H](C(=O)N[C@]2(C)O[C@@]3(O)[C@@H]4CCCN4C(=O)[C@H](Cc4ccccc4)N3C2=O)C=C2c3cccc4[nH]cc(c34)C[C@H]21 [ERGOTAMINE]"
reading_unit = "µM"
result = 14.2


// query Which Ki value belongs to COC(=O)[C@H]1[C@H]2C[C@@H]3c4[nH]c5cc(OC)ccc5c4CCN3C[C@H]2C[C@@H](OC(=O)c2cc(OC)c(OC)c(OC)c2)[C@@H]1OC [RESERPINE] ?
// result 0.97

====

Target: ATP-dependent translocase ABCB1 (Homo sapiens)
Assay: TP_TRANSPORTER: increase in Calcein-AM intracellular accumulation in MDR1-expressing LLC-PK1 cells
Format: functional, cell-based
measured-quantity: pKi
To interpret pKi, take it as minus log10 of a concentration measured in moles per litre.

[[record]]
compound = "CC(C)C[C@H]1C(=O)N2CCC[C@H]2[C@]2(O)O[C@](NC(=O)[C@@H]3C[C@@H]4c5cccc6[nH]cc(c56)C[C@H]4N(C)C3)(C(C)C)C(=O)N12 [DIHYDROERGOCRYPTINE]"
measured_quantity = "pKi"
result = 3.44


// query Which pKi value belongs to `C[C@@H](CO)NC(=O)[C@@H]1C=C2c3cccc4[nH]cc(c34)C[C@H]2N(C)C1` ?
// result 3.94

====

Target: ATP-dependent translocase ABCB1 (Homo sapiens)
Test: TP_TRANSPORTER: increase in Calcein-AM intracellular accumulation in MDR1-expressing LLC-PK1 cells
Format: functional, cell-based
measured-quantity: pKi
To interpret pKi, take it as minus log10 of a concentration measured in moles per litre.

// query Which pKi value belongs to `COC(=O)[C@H]1[C@H]2C[C@@H]3c4[nH]c5cc(OC)ccc5c4CCN3C[C@H]2C[C@@H](OC(=O)c2cc(OC)c(OC)c(OC)c2)[C@@H]1OC` ?
// result 4.91

// query Subsequent entry: `CN1C[C@H](C(=O)N[C@]2(C)O[C@@]3(O)[C@@H]4CCCN4C(=O)[C@H](Cc4ccccc4)N3C2=O)C=C2c3cccc4[nH]cc(c34)C[C@H]21`
// result 4.00

====

Molecular target: ATP-dependent translocase ABCB1 (Homo sapiens, UniProt P08183)
Assay: TP_TRANSPORTER: increase in Calcein-AM intracellular accumulation in MDR1-expressing LLC-PK1 cells
Format: functional, cell-based
measured-quantity: Ki (µM)
The reply should contain only the number, in µM.

[[record]]
molecule = "CC(C)[C@H]1C(=O)N2CCC[C@H]2[C@]2(O)O[C@](NC(=O)[C@@H]3C=C4c5cccc6[nH]cc(c56)C[C@H]4N(C)C3)(C(C)C)C(=O)N12 [ERGOCORNINE]"
result = 105

[[record]]
molecule = "CC(C)C[C@H]1C(=O)N2CCC[C@H]2[C@]2(O)O[C@](NC(=O)[C@@H]3C=C4c5cccc6[nH]c(Br)c(c56)C[C@H]4N(C)C3)(C(C)C)C(=O)N12 [BROMOCRIPTINE]"
result = 2.81

[[record]]
molecule = "CC(C)C[C@H]1C(=O)N2CCC[C@H]2[C@]2(O)O[C@](NC(=O)[C@@H]3C=C4c5cccc6[nH]cc(c56)C[C@H]4N(C)C3)(C(C)C)C(=O)N12 [ERGOCRYPTINE]"
result = 12.2

[[record]]
molecule = "CC(C)[C@@]1(NC(=O)[C@@H]2C=C3c4cccc5[nH]cc(c45)C[C@H]3N(C)C2)O[C@@]2(O)[C@@H]3CCCN3C(=O)[C@H](Cc3ccccc3)N2C1=O [ERGOCRISTINE]"
result = 42.8


// query Provide the documented Ki with ATP-dependent translocase ABCB1 (Homo sapiens, UniProt P08183) as the system for CC(C)[C@@]1(NC(=O)[C@@H]2C[C@@H]3c4cccc5[nH]cc(c45)C[C@H]3N(C)C2)O[C@@]2(O)[C@@H]3CCCN3C(=O)[C@H](Cc3ccccc3)N2C1=O [DIHYDROERGOCRISTINE]
// result 511

Reference for the values: ChEMBL document CHEMBL2074392
